Would you kindly list % Total Binding relative to Control I for each of these molecules?
Target: T1, PRLR-expressing cells (T47D) (Homo sapiens, UniProt P16471)
T1 construct: a native PRLR expressing cell line (T47D); endogenous in cells; host or cells: T47D
T1 sequence (P16471 25-622): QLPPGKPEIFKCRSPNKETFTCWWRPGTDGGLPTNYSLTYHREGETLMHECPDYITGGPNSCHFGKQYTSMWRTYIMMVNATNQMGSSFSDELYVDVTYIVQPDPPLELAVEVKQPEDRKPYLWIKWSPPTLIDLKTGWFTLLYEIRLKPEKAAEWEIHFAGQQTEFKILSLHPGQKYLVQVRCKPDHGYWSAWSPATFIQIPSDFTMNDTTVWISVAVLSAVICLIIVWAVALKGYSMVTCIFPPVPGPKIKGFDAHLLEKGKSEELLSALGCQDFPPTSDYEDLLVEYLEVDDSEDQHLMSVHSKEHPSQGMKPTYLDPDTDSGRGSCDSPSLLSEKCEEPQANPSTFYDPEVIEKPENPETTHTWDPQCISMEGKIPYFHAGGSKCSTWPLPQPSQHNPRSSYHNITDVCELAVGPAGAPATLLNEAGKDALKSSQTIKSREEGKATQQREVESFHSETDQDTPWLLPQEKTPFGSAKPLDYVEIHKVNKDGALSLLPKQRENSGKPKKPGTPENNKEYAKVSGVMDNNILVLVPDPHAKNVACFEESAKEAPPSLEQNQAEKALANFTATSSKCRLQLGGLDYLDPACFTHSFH
Assay: Antibody binding and internalization by PRLR-expressing cells (imaging)
Format: cell-based
Conditions: [mAb] (0.67 nM), whole cell alexa488 intensity at 37° C.

Example results:
- Molecule: "H1H6795P: anti-PRLR antibody, human IgG1 Fc; HCVR/LCVR SEQ ID NOs 162/170 (antibody, V domains shown, human IgG1 Fc) VH: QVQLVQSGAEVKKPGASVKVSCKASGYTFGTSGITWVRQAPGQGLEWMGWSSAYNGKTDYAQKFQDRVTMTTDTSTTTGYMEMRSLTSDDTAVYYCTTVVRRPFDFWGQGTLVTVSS VL: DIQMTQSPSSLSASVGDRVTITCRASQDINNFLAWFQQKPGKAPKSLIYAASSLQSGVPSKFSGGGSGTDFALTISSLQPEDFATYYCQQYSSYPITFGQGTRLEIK"
  Result: "123.4%"
- Molecule: "H1H6765P: anti-PRLR antibody, human IgG1 Fc; HCVR/LCVR SEQ ID NOs 18/26 (antibody, V domains shown, human IgG1 Fc) VH: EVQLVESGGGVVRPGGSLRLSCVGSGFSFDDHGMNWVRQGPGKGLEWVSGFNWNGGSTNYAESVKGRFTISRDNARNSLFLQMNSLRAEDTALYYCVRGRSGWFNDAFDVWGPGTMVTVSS VL: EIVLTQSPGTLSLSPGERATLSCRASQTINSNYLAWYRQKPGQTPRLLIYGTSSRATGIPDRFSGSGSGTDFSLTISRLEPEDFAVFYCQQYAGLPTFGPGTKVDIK"
  Result: "191.3%"
- Molecule: "H1H6800P: anti-PRLR antibody, human IgG1 Fc; HCVR/LCVR SEQ ID NOs 194/202 (antibody, V domains shown, human IgG1 Fc) VH: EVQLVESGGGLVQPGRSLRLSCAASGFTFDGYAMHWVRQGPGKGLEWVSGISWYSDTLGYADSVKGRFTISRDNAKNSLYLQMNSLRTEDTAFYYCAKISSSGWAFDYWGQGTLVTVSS VL: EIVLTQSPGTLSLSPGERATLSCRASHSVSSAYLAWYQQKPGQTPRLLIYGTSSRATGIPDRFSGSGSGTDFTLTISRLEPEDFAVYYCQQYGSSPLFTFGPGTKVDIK"
  Result: "186.8%"

-- ask Give the measured % Total Binding relative to Control I of H1H6967N: human IgG1 Fc form of H2M6967N; anti-PRLR; HCVR/LCVR SEQ ID NOs 354/362 (antibody, V domains shown, human IgG1 Fc) VH: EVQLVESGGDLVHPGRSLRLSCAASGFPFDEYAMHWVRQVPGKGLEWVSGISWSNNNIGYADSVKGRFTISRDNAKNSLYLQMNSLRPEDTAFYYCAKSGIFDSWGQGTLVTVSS VL: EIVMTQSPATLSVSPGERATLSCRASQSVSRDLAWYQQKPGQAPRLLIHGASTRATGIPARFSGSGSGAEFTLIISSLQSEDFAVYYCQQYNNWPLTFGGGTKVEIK .
-- reply 158.6%
